All values here come from patent US20090208447A1.

molecular target: HLA-A*0201 loaded with the Carcinoembryonic antigen (CEA)-derived … peptide (biotinylated on the C-terminal biotinylation tag); assay: SPR (Biacore), Example 4
pKd: −log10 of the molar value.

{"binder": "SEQ ID NO 8 (receptor) MGHLPKPTLWAEPGSVITLMQPVTLRCQGGQETQEYRLYREKKTAPWITRIPQELVKKGQFPIPSITWEHAGRYRCYYGSDTAGRSESSDPLELVVTGAYIKPTLSAQPSPVVNSGGNVTLQCDSQVAFDGFILCKEGEDEHPQCLNSQPHARGSSRAIFSVGPVSPSRRWWYRCYAYDSNSPYEWSLPSDLLELLVL", "pKd": "≥ 6.00"}
{"binder": "SEQ ID NO 68 (receptor) MHLPKPTLWAEPGSVITLRSPVTLRCQGGQETQEYRLYREKKTAPWITRIPQELVKKGQFPIPSITWEHAGRYRCYYGSDTSQWSASSDPLELVVTGVYIKPTLSAQPSPVVNSGGNVTLQCDSQVAFDGFILCKEGEDEHPQCLNSQPHARGSSRAIFSVGPVSPSRRWWYRCYAYDSNSPYEWSLPSDLLELDVDG", "pKd": "≥ 6.00"}
{"binder": "SEQ ID NO 74 (receptor) MHLPKPTLWAEPGSVITMDQPVTLRCQGGQETQEYRLYREKKTAPWITRIPQELVKKGQFPIPSITWEHAGRYRCYYGGQEGARSESSDPLELVVTGVYIKPTLSAQPSPVVNSGGNVTLQCDSQVAFDGFILCKEGEDEHPQCLNSQPHARGSSRAIFSVGPVSPSRRWWYRCYAYDSNSPYEWSLPSDLLELDVDG", "pKd": "≥ 6.00"}
